Test: folding enthalpy; higher = less favourable; fluorescence melt of hairpins on a sequencing array, two-state fit
Settings: sodium 0.088 M
Tick T if folding enthalpy is -20 kcal/mol or greater. Tick F if folding enthalpy is less than -20 kcal/mol.

- GGGTCACCGAAAGGTCCC (((..(((....)))))): T
- GCAATTGGAAACAACTGC (((.(((....))).))): F
- GGTCCCGAAAGGGTCACC ((((((....)))..))): T
- GATCTTAAGTAAGATC ((((((....)))))): F
- GTCGTGGGAAACCATGAC (((.(((....))).))): F
- GGTAACACGAAAGTGACC (((..(((....)))))): T
- GATGCAGGAAACTGCATC (((((((....))))))): F
- GCACTGCGAAAGCCCTGC (((..((....))..))): T
- CGTGCGGAAACGCGCACG ((((((....)))..))): F
- GCTAAGCGAAAGCTGCGC ((..(((....)))..)): F
- GCTAGTGGAAACGCTAGC (((((.(....).))))): F
- GGGCTAGGAAACTGGTCC ((.(.((....)).).)): F

---

Tm reference
Experiment: melting temperature; fluorescence melt of hairpins on a sequencing array, two-state fit, raised by 9.35 °C to match UV melts
Settings: sodium 0.088 M
measurement.type: Tm (°C)

- GAGCTCCGAAAGGAACTC (((.(((....))).))): 50.6
- GCTGGGCGAAAGCAGAGC (((..((....))..))): 49.5
- GCCCGTCGAAAGACCGGC (((.(((....))).))): 52.6
- GGCCGCGAAAGCGATGCC ((((((....)))..))): 59.3
- GCGTCGCGAAAGCAAGGC ((.(.((....)).).)): 43.8
- GATCCGGGCGCGGATC ((((((....)))))): 59.8
- GCTTATGCGAAAGCAAGC (((..(((....)))))): 42.4
- GTTGGCCCGAAAGGGAAC (((..(((....)))))): 45.3
- GTCCACGAAAGTGCAGAC ((((((....)))..))): 36.2
- GTTATCTCGAAAGAGAAC (((..(((....)))))): 29.8
- GAAGCCCGAAAGGGATTC (((.(((....))).))): 61.4
- GGTATTCGAAAGAAAACC (((.(((....))).))): 39.3

---

Test: melting temperature; fluorescence melt of hairpins on a sequencing array, two-state fit, raised by 9.35 °C to match UV melts
Conditions: sodium 0.088 M
Values of Tm strictly less than 50 °C map to YES, and values of at least 50 °C map to NO.

• GGGTTGGGAAACCGATCC ((.(.((....)).).)) = YES
• GCGGAGCGAAAGCTCGC (((.(((....)))))) = NO
• CGCGGAACGGTCCGCG ((((((....)))))) = NO
• GGCCTACCGAAAGGTGCC (((..(((....)))))) = YES
• GCCACCGAAAGGTAAGGC ((((((....)))..))) = NO
• GCTTCACGAAAGTGGAGC (((.(((....))).))) = NO
• GGGAGCGGAAACACCCCC (((.(.(....).).))) = YES
• GATCACACTGGTGATC ((((((....)))))) = NO
• GATCTAAGCTTAGATC ((((((....)))))) = YES
• CGAACGGAAACGTAGTCG ((((((....)))..))) = YES
• GTGCTGGGAAACCGGCAC ((((.((....)).)))) = NO
• GGATGGCGAAAGCCGTCC (((.(((....))).))) = NO
• GATCGTTAACACGATC ((((((....)))))) = NO
• GATCATGTTGATGATC ((((((....)))))) = YES
• GGAACGCGAAAGCGTCC (((.(((....)))))) = NO
• GATCCACGATTGGATC ((((((....)))))) = YES
• GTAAAAGGAAACTTTTGC (.(((((....))))).) = YES
• GCTATGCGAAAGCCGAGC (((..((....))..))) = YES
• GAACCCGGAAACGGGCTC ((.((((....)))).)) = YES
• GGAGTGGGAAACTGCTCC ((((..(....)..)))) = YES
• GCTTGAGGAAACTTGAGC (((..((....))..))) = YES
• GTCATATCGAAAGATGAC (((..(((....)))))) = YES
• GACATGCCGAAAGGCGTC (((..(((....)))))) = YES
• GTCCCAGGAAACTGGGAC (((((((....))))))) = NO
• GTGCGCGAAAGCGGTCAC ((((((....)))..))) = YES
• GATCCCATAGGGATC ((((((...)))))) = NO
• TTTTGGAAACAAAA (((((....))))) = YES
• GATCTATCGCTAGATC ((((((....)))))) = YES
• GACCCCGAAAGGGAAGTC ((((((....)))..))) = YES
• GCAGAGCGAAAGCTTAGC ((..(((....)))..)) = YES
• GGATGTCGAAAGACCTCC (((.(((....))).))) = YES
• GCGAGCCGAAAGGCCCGC (((.(((....))).))) = NO
• GATCAAATCATTGATC ((((((....)))))) = YES
• GCCTGAGGAAACTCAAGC ((.((((....)))).)) = YES
• GAGATAGGAAACCATCTC (((((.(....).))))) = YES
• GCGACCTTCGC ((((...)))) = YES
• GGGCCGCGAAAGCGCCCC (((.(((....))).))) = NO
• GTGTCAGGAAACTAACAC ((((.((....)).)))) = YES
• GACTACGAAAGTAGTC ((((((....)))))) = NO
• GACCGTGAAAACGGTC ((((((....)))))) = NO
• GGTTTGAAAAAACC (((((....))))) = YES
• GCAAGATCGAAAGATTGC (((..(((....)))))) = YES
• GATCCCCTAGGGGATC ((((((....)))))) = NO
• GCGGTCGGCCGC ((((....)))) = NO
• CGAGGCGGAAACGCATCG (((.(((....))).))) = NO

---

Assay: folding enthalpy; higher = less favourable; fluorescence melt of hairpins on a sequencing array, two-state fit
Details: sodium 0.088 M
Quick rule for you: folding enthalpy at -20 kcal/mol or higher means T, lower means F.

* GGAACCGAAAGGTAGTCC ((((((....)))..))) | T
* GCGCGAGGAAACCCGCGC (((((.(....).))))) | F
* GGCCTGGGAAACTGGGCC ((((..(....)..)))) | F
* GCAGTGCGAAAGCATCGC ((..(((....)))..)) | T
* GCGTAGTGACGC ((((....)))) | T
* GATCCACTCTTGGATC ((((((....)))))) | F
* GCAAGCGGAAACGCTTAC (.(((((....))))).) | T
* GTGACAGGAAACTGTCGC (.(((((....))))).) | F
* GAACCACGAAAGTGATTC (((.(((....))).))) | F
* GGGTAAGGAAACTTGCCC (((.(((....))).))) | F
* GATCAGCAGCTGATC ((((((...)))))) | F
* GTTATCGCGAAAGCGAAC (((..(((....)))))) | T

---

Tm: recorded values
Test: melting temperature; fluorescence melt of hairpins on a sequencing array, two-state fit, raised by 9.35 °C to match UV melts
Conditions: sodium 0.088 M
measurement.type: Tm (°C)

* GCACAGGGAAACCTGTAC (.(((((....))))).) | 40.3
* GTGGTCGAAAGACGACAC ((((((....)))..))) | 47.2
* GCGCATCGAAAGATCCGC (((.(((....))).))) | 47.8
* GCTTGACCGAAAGGTAGC (((..(((....)))))) | 38.7
* GCAGAGCGAAAGCTTTGC (((.(((....))).))) | 56.1
* CGTGTCCGGAAACGGACG (((..(((....)))))) | 48.1
